Test system: RXRa DBDmut IVT, anti-RXR (DBD mutation: RXRa K156A/R161A, NR concentration 90 nM)
measurement.description: PBM binding z-score (relative to random genomic background probes); higher = stronger binding; sequences stand for … in GC…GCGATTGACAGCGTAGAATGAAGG
property.label: PBM binding z-score
Reply: number alone, nothing else.

The sequence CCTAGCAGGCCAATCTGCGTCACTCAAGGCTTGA on RXRa DBDmut IVT, anti-RXR (DBD mutation: RXRa K156A/R161A, NR concentration 90 nM): PBM binding z-score was 0.164

The sequence TAGCCTAGGTCATGGGCCAGTAAACCACGCGAAC on RXRa DBDmut IVT, anti-RXR (DBD mutation: RXRa K156A/R161A, NR concentration 90 nM): PBM binding z-score was 0.473

The sequence CGTCCAAGGTCAAAGGGCAGTGAAGAGATGACGG on RXRa DBDmut IVT, anti-RXR (DBD mutation: RXRa K156A/R161A, NR concentration 90 nM): PBM binding z-score was 3.46

The sequence CAATCTAGGTCAAGAGGTCAAAGTCCGCTTCCCG on RXRa DBDmut IVT, anti-RXR (DBD mutation: RXRa K156A/R161A, NR concentration 90 nM): PBM binding z-score was 2.79

The sequence CCTACTGGGCCAAAGGTTATTGATTCCAATGCTC on RXRa DBDmut IVT, anti-RXR (DBD mutation: RXRa K156A/R161A, NR concentration 90 nM): PBM binding z-score was 0.31

The sequence TCTGCTAGGTCAACTATGGTCAGCTAATCTGCTA on RXRa DBDmut IVT, anti-RXR (DBD mutation: RXRa K156A/R161A, NR concentration 90 nM): PBM binding z-score was 1.45

The sequence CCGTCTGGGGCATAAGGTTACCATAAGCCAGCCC on RXRa DBDmut IVT, anti-RXR (DBD mutation: RXRa K156A/R161A, NR concentration 90 nM): PBM binding z-score was -0.715

The sequence CCTACTGGGCCACGAAAGGTCATTGAGTCAGTGA on RXRa DBDmut IVT, anti-RXR (DBD mutation: RXRa K156A/R161A, NR concentration 90 nM): PBM binding z-score was 0.536

The sequence TAGCCTAGGACAGATCGGGCCAGTATACGCTATA on RXRa DBDmut IVT, anti-RXR (DBD mutation: RXRa K156A/R161A, NR concentration 90 nM): PBM binding z-score was -1.01

The sequence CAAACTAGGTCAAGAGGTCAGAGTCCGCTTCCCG on RXRa DBDmut IVT, anti-RXR (DBD mutation: RXRa K156A/R161A, NR concentration 90 nM): PBM binding z-score was 2.53

The sequence CGTCCAAGGTCAGAGAGGTCAATGAATGCCGAGT on RXRa DBDmut IVT, anti-RXR (DBD mutation: RXRa K156A/R161A, NR concentration 90 nM): PBM binding z-score was 3.55

The sequence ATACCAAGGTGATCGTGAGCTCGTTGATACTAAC on RXRa DBDmut IVT, anti-RXR (DBD mutation: RXRa K156A/R161A, NR concentration 90 nM): PBM binding z-score was -0.225

The sequence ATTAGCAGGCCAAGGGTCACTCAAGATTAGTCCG on RXRa DBDmut IVT, anti-RXR (DBD mutation: RXRa K156A/R161A, NR concentration 90 nM): PBM binding z-score was 0.43

The sequence TCTACAGGGTCAAAGGCCAGAGTACGAATGTCGA on RXRa DBDmut IVT, anti-RXR (DBD mutation: RXRa K156A/R161A, NR concentration 90 nM): PBM binding z-score was 3.16

The sequence CGTCAAAGTTCAACTAAGGTAACGTAGAGCACGC on RXRa DBDmut IVT, anti-RXR (DBD mutation: RXRa K156A/R161A, NR concentration 90 nM): PBM binding z-score was 4.65

The sequence AGAATGACGTTACCAAAGATCAGGGAAACGCTTG on RXRa DBDmut IVT, anti-RXR (DBD mutation: RXRa K156A/R161A, NR concentration 90 nM): PBM binding z-score was -0.636

The sequence ATCTCTAGGCAACAAGTTCAGTGAAAGAGAGGAC on RXRa DBDmut IVT, anti-RXR (DBD mutation: RXRa K156A/R161A, NR concentration 90 nM): PBM binding z-score was 0.344

The sequence ACTTTCGGGTCAACGAGGTTATAGCACGCGTATA on RXRa DBDmut IVT, anti-RXR (DBD mutation: RXRa K156A/R161A, NR concentration 90 nM): PBM binding z-score was 3.12

The sequence GCGACTGGGGCATCAGGAGGTTACCATAACTTAA on RXRa DBDmut IVT, anti-RXR (DBD mutation: RXRa K156A/R161A, NR concentration 90 nM): PBM binding z-score was 0.162

The sequence GATACAGTGTCAGCTAGAGGCCAGAGTATGGAAA on RXRa DBDmut IVT, anti-RXR (DBD mutation: RXRa K156A/R161A, NR concentration 90 nM): PBM binding z-score was -0.492

The sequence CAGCCTAGGTCAGGGCCAGTAAAGGAGGAACGTT on RXRa DBDmut IVT, anti-RXR (DBD mutation: RXRa K156A/R161A, NR concentration 90 nM): PBM binding z-score was -0.0941

The sequence TTACCAAGGTGTAAGGTCGTTGATGCACGCCTTG on RXRa DBDmut IVT, anti-RXR (DBD mutation: RXRa K156A/R161A, NR concentration 90 nM): PBM binding z-score was 0.411

The sequence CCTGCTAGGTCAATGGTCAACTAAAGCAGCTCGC on RXRa DBDmut IVT, anti-RXR (DBD mutation: RXRa K156A/R161A, NR concentration 90 nM): PBM binding z-score was 1.64

The sequence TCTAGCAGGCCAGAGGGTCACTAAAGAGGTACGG on RXRa DBDmut IVT, anti-RXR (DBD mutation: RXRa K156A/R161A, NR concentration 90 nM): PBM binding z-score was -0.16

The sequence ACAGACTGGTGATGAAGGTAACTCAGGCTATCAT on RXRa DBDmut IVT, anti-RXR (DBD mutation: RXRa K156A/R161A, NR concentration 90 nM): PBM binding z-score was -0.417

The sequence CCGACTGGGGCAAAAAGGTTACCATACCATCCGG on RXRa DBDmut IVT, anti-RXR (DBD mutation: RXRa K156A/R161A, NR concentration 90 nM): PBM binding z-score was -0.333

The sequence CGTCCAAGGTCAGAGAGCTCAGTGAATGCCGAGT on RXRa DBDmut IVT, anti-RXR (DBD mutation: RXRa K156A/R161A, NR concentration 90 nM): PBM binding z-score was 2.67

The sequence CCTTATGGGTCACGAGGTTATAGCACGACGAGCG on RXRa DBDmut IVT, anti-RXR (DBD mutation: RXRa K156A/R161A, NR concentration 90 nM): PBM binding z-score was 1.46

The sequence ATCGAAAGGTCGAAGGTGAATATACCCACCCGAA on RXRa DBDmut IVT, anti-RXR (DBD mutation: RXRa K156A/R161A, NR concentration 90 nM): PBM binding z-score was 1.35

The sequence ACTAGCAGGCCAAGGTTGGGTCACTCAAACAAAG on RXRa DBDmut IVT, anti-RXR (DBD mutation: RXRa K156A/R161A, NR concentration 90 nM): PBM binding z-score was -0.829

The sequence CCTAGCAGGCCAGGGTAACTCAAGCATTTCGCTT on RXRa DBDmut IVT, anti-RXR (DBD mutation: RXRa K156A/R161A, NR concentration 90 nM): PBM binding z-score was -0.541

The sequence ATAAGTAGGTTAAGGGTCATTCAGGTTGGTTCGC on RXRa DBDmut IVT, anti-RXR (DBD mutation: RXRa K156A/R161A, NR concentration 90 nM): PBM binding z-score was 2.28

The sequence GGAACGAGGGCAAGTTGATAGGAGAGTTTGATGG on RXRa DBDmut IVT, anti-RXR (DBD mutation: RXRa K156A/R161A, NR concentration 90 nM): PBM binding z-score was 2.4

The sequence ACAGACAGGTGAGTGAAGGTAACACAGCTGGACG on RXRa DBDmut IVT, anti-RXR (DBD mutation: RXRa K156A/R161A, NR concentration 90 nM): PBM binding z-score was -0.436

The sequence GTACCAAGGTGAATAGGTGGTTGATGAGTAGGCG on RXRa DBDmut IVT, anti-RXR (DBD mutation: RXRa K156A/R161A, NR concentration 90 nM): PBM binding z-score was -0.536
